Please go through the items and note down their SH2 binding enrichment.
Molecular target: Grb2 SH2 (UniProt P62993)
Sequence (P62993 whole entry, looked up, the tested form may be a part): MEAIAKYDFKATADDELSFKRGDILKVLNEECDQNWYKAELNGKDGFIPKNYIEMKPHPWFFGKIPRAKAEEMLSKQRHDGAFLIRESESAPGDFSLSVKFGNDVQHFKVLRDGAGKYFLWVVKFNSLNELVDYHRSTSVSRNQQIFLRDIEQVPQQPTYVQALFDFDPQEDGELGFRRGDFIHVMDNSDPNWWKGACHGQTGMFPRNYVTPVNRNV
Assay: SH2 binding enrichment of the phosphorylated peptide, bacterial display (enrichment ratio); higher = better substrate or ligand; peptides without Tyr show the background;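 further: peptide library displayed on the E. coli surface as eCPX fusions, selected cells deep-sequenced, score is each peptide's frequency after selection divided by its frequency in the input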

So for RTIPDYTSFNT [EPHB2_Y912] , the logged SH2 binding enrichment turned out to be 1.12

So for CENNRYGMGTS [PDHA1_Y227] , the logged SH2 binding enrichment turned out to be 0.77

So for DSNLIYSQIWS [FCRL3_Y662_P660L] , the logged SH2 binding enrichment turned out to be 0.754

So for SECCKYKIDNP [OSMR_Y689] , the logged SH2 binding enrichment turned out to be 0.94

So for SEDSEYYKAFE [CASQ2_Y178] , the logged SH2 binding enrichment turned out to be 0.827

So for SCRENYSYSEE [LEMD3_Y258_D260Y] , the logged SH2 binding enrichment turned out to be 1.04

So for GFPVHYTDMSN [DNMT3B_Y815_V818M] , the logged SH2 binding enrichment turned out to be 0.787

So for SSAKTYSRMRL [NBEAL2_Y1835_E1833K] , the logged SH2 binding enrichment turned out to be 0.869

So for PIGRKYKKVRF [F8_Y442_R437P] , the logged SH2 binding enrichment turned out to be 0.653

So for KDHPDYKYQLR [SOX10_Y171_P175L] , the logged SH2 binding enrichment turned out to be 0.93

So for AASTDYFKRGD [PDHA1_Y242_YF] , the logged SH2 binding enrichment turned out to be 0.879

So for KTVQDYLEKFY [MMP8_Y36] , the logged SH2 binding enrichment turned out to be 1.13

So for FVSIVYNDFGE [TSC2_Y1650_S1653F] , the logged SH2 binding enrichment turned out to be 1.96

So for DRFANYIEKVR [DES_Y122] , the logged SH2 binding enrichment turned out to be 0.769

So for GPKSTYISSAA [GOLGA5_Y62] , the logged SH2 binding enrichment turned out to be 0.715

So for DRLAVYIDRVR [LMNA_Y45] , the logged SH2 binding enrichment turned out to be 1.07

So for NKPTVYGVSPN [ABL1_Y226] , the logged SH2 binding enrichment turned out to be 0.899

So for KRGIDYILRHM [FRMD1_Y225] , the logged SH2 binding enrichment turned out to be 1.95

So for VHSGTYQVMVR [MYBPC3_Y1043_T1046M] , the logged SH2 binding enrichment turned out to be 0.94

So for RPPFTYATLIR [FOXP3_Y342] , the logged SH2 binding enrichment turned out to be 1.37

So for ADLTEYLSTHF [UQCRC1_Y219_YF] , the logged SH2 binding enrichment turned out to be 0.717

So for RASGIYFVPKG [APBB1IP_Y340_YF] , the logged SH2 binding enrichment turned out to be 1.12

So for LEHCQYVTQKV [ALDOB_Y204_E207Q] , the logged SH2 binding enrichment turned out to be 0.957

So for LNSFIYSLRNR [OR1A1_Y288_P285S] , the logged SH2 binding enrichment turned out to be 0.732

So for PVQDAYQKVVA [HBB_Y131_A129D] , the logged SH2 binding enrichment turned out to be 0.983

So for WQQQSYLDSVI [CTNNB1_Y30_G34V] , the logged SH2 binding enrichment turned out to be 0.757

So for EPSVDCCVVKI [CAD_Y735_Y735C] , the logged SH2 binding enrichment turned out to be 0.887

So for FLAVGYHKLHI [IDS_Y225_P228L] , the logged SH2 binding enrichment turned out to be 1.36

So for QISQDYGVLLE [PRDX3_Y172_R170Q] , the logged SH2 binding enrichment turned out to be 0.52
